B1: CPEB3 Ribozyme (parent)
chain: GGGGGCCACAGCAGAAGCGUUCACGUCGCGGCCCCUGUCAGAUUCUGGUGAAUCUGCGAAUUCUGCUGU

variants of: B1; assay: self-cleavage, relative activity (ratio to wild type); higher = more cleavage; co-transcriptional
MEASUREMENT LABEL: self-cleavage
Answers are plain numbers.

{"columns": ["SEQUENCE CONTENT", "self-cleavage"],
 "data": [
  ["GGGGGCCACAGCAGAAGAGUUCACGUCGCGGCCCCUGGCAGAUUCUGGUGAAUCUGCGAAUUCUGCUGU [C18A U38G]", 0.212],
  ["GGGGGCCACAGCAGAAGCGUUCACGUCGCGGCCCCUGUCAGAUUCUGGUGAAUCUGAGAAUUCUCCUGU [C57A G65C]", 0.4],
  ["GGGGGCCACAGCAGAAGCGUUCCCGUCGCGGCCCUUGUCAGAUUCUGGUGAAUCUGCGAAUUCUGCUGU [A23C C35U]", 0.844],
  ["GGGGGCCACAGCAGAUGUGUUCACGUCGCGGCCCCUGUCAGAUUCUGGUGAAUCUGCGAAUUCUGCUGU [A16U C18U]", 0.301],
  ["GGGGGCCACAGCAGAAGCGUUCACGUCGCGGCCCCUGUCAGAUUCUGGUGAAUGUGCGAAUUCUGCUUU [C54G G68U]", 0.993],
  ["GGGGGCCACAGCAGAAGGGUUCACGUCGCGGCCCCUGUCAGAUUCUGGUGGAUCUGCGAAUUCUGCUGU [C18G A51G]", 0.184],
  ["GGGGGCCACAGCAGAAGCCUUCACGUCGCGGCCCCUGUCAGAUUCUGGUGAAUCUGCGAAUUCAGCUGU [G19C U64A]", 0.176],
  ["GGGGGCCACAGCAGAAGCGUUCACGUCGCGGCCCCUGUCAGAUUCUGGUGACUCUGUGAAUUCUGCUGU [A52C C57U]", 0.398]
]}

Report self-cleavage for each item below.
1. GGGGGCCACAGCAGAAGCGUUCACGUCGCGGCCCCUGUCAUAUUCUGGUGAAUCUGCGAAUUGUGCUGU [G41U C63G]
2. GGGGGCCACAGCAGAAGCGUUCACGUCGCGGCCCCUGUCAGAUUAUGGUGAAUCUGCGAAUUUUGCUGU [C45A C63U]

Solution:
[0.43, 1.02]

Problem: Given GGGGGCCACAGCAGAAGCGUUCACGUCGCGACCCCUGUCAGAUUCUGGUGAAUCUGCGAAUUCUGUUGU [G31A C66U] , state its recorded self-cleavage.
Solution: 0.913
